- tested_target: Riboflavin-binding protein (Gallus gallus)
- Sequence (P02752 whole entry): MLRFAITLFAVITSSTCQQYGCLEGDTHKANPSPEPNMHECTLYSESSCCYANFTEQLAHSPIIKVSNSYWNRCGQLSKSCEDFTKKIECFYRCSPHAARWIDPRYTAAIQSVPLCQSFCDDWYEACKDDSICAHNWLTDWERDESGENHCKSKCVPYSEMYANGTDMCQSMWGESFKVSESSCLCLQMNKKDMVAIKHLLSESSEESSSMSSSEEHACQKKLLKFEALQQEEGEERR
- assay_procedure: Binding affinity to chicken riboflavin binding protein assessed as dissociation constant at pH 4 in 0.1 M NaAc by isothermal titration calorimetric assay
reported_property: Kd (nM)

Cc1cc2nc3c(=O)[nH]c(=O)nc-3n(C[C@H](O)[C@H](O)[C@H](O)CO)c2cc1C ... 46

----------
- tested_target: Riboflavin-binding protein (Gallus gallus)
- assay_procedure: Binding affinity to chicken riboflavin binding protein assessed as dissociation constant at pH 9 in 0.1 M Tris by isothermal titration calorimetric assay
reported_property: Kd (nM)

Cc1cc2nc3c(=O)[nH]c(=O)nc-3n(C[C@H](O)[C@H](O)[C@H](O)CO)c2cc1C ... 34

----------
- tested_target: Riboflavin-binding protein (Gallus gallus)
- Sequence (P02752 whole entry): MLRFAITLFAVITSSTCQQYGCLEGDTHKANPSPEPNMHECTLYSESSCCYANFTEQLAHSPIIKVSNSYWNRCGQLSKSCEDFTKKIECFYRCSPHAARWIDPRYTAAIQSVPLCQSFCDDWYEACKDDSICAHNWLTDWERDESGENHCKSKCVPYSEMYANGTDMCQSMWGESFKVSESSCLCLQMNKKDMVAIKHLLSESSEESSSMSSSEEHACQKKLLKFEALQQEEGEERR
- assay_procedure: Binding affinity to chicken riboflavin binding protein assessed as dissociation constant at pH 7.4 in phosphate buffer by isothermal titration calorimetric assay
pKd: −log10 of the molar value.
reported_property: pKd

Cc1cc2nc3c(=O)[nH]c(=O)nc-3n(C[C@H](O)[C@H](O)[C@H](O)CO)c2cc1C [RIBOFLAVIN] ... 8.30
Cc1cc2nc3c(=O)[nH]c(=O)nc-3n(C)c2cc1C [LUMIFLAVIN] ... 7.21
